# assayed-system: P. falciparum apicoplast DNA polymerase (Pf-apPOL) (Plasmodium falciparum)
# assay-name: Fluorescence-based high-throughput DNA polymerase assay (molecular beacon), primary screen and dose-response
# Assay type: biochemical
# applied-conditions: DRC-2; 5'; concentration 2.5
The following compounds are listed with their measured % inhibition Apo pol 5' values.
The answer is to be given in %; state only the numeric part.

// solved cases for % inhibition Apo pol 5' follow
COc1ccc(NC(=O)Cn2ccc3c(=O)[nH]ccc32)cc1 [Molecule 13, COc1ccc(cc1)NC(=O)Cn1ccc2c1cc[nH]c2=O]
7
O=c1cc(-c2ccccc2Cl)oc2c(NS(=O)(=O)c3cc(Cl)cc(Cl)c3O)ccc(O)c12 [KU0104277]
-4

Query: % inhibition Apo pol 5'; subject: NS(=O)(=O)c1ccc(NC(=O)c2ccc(N3C(=O)CCC3=O)cc2)cc1 [KU0025331]
8

Same for O=c1[nH]c2ccc(Br)cc2c(-c2ccccc2)c1C1=NNC(c2ccco2)C1 (stereo not shown) [KU0045540]
15

Same for CCOc1cccc2cc(C(=O)Nc3nnc(-c4ccno4)o3)oc12 [Molecule 28, CCOc1cccc2c1oc(c2)C(=O)Nc1nnc(o1)c1ccno1]
16

----------
# assayed-system: P. falciparum apicoplast DNA polymerase (Pf-apPOL) (Plasmodium falciparum, UniProt Q8ILY1)
# Sequence (Q8ILY1 entry or part of it): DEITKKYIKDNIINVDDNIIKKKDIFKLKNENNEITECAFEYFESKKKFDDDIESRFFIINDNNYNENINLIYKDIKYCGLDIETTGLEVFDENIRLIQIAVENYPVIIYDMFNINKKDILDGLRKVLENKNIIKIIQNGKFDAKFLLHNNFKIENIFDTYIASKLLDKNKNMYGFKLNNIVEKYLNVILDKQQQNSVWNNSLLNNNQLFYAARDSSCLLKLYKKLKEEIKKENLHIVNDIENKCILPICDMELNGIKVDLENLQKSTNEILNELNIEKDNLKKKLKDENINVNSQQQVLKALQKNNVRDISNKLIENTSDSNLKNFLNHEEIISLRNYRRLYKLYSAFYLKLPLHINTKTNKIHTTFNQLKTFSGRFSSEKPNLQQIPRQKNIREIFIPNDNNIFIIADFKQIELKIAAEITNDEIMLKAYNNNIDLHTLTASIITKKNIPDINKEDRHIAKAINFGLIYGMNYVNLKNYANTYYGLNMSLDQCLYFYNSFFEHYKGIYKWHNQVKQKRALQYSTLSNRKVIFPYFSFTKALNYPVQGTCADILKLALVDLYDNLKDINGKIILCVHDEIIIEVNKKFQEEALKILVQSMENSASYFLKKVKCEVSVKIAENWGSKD
# assay-name: Fluorescence-based high-throughput DNA polymerase assay (molecular beacon), primary screen and dose-response;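 as to % inhibition apPOL 180': test concentration in µM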
# Format: biochemical
# applied-conditions: DRC-1; 180'; concentration 2.5
measured-parameter: % inhibition apPOL 180' (%)
The answer is to be given in %; state only the numeric part.

CSCCC(C)(O)CNC(=O)C1CC1 (centres unmarked)
8.962
O=C1C(=Cc2ccccc2O)Oc2ccc(O)cc21
3.033
O=C(Cc1cc(=O)[nH]c(SCc2ccccc2)n1)Nc1ccc2c(c1)OCO2
-11.1217
O=C(NNC(=O)C(F)(F)Sc1ccccc1)c1ccsc1 [Molecule 68, O=C(C(Sc1ccccc1)(F)F)NNC(=O)c1cscc1]
-9.701

// next entry
Query: % inhibition apPOL 180'; subject: CC1=NNC(=O)C1Oc1ccc(Cl)cc1Cl (centres unmarked)
-5.173

----------
# assayed-system: P. falciparum apicoplast DNA polymerase (Pf-apPOL) (Plasmodium falciparum)
# assay-name: Fluorescence-based high-throughput DNA polymerase assay (molecular beacon), primary screen and dose-response
# Type: biochemical
# applied-conditions: DRC-2; 40'; concentration 40
# cutoff 60% applies to % inhibition Apol 40'; >= gives true (1), < gives false (0)

Solved cases (5 shown):
COc1ccc(-c2cc(=O)c3cc(O)ccc3o2)cc1OC [KU0193655]
false (0)
CCCc1ccc(Oc2coc3cc(OC)ccc3c2=O)cc1 [KU0193249]
false (0)
O=C1N/C(=N/c2ccccc2Cl)S/C1=C/c1ccc([N+](=O)[O-])o1 [KU0054524]
false (0)
Nc1cc(Oc2ccc(O)c(N)c2)ccc1O [KU0034728]
true (1)
CCC(C)NC(=O)c1cc(NC(C)=O)cc2nc(C)ccc12 (centres unmarked) [KU0206314]
false (0)

Can O=C(O)c1ccc(-c2nc3cc(-c4ccc5nc(-c6ccc(C(=O)O)cc6)[nH]c5c4)ccc3[nH]2)cc1 [Molecule 1] be said to have % inhibition Apol 40' at or above 60%?
false (0)

Same for CCOc1ccc(/C=C2\N=C(c3cc([N+](=O)[O-])cc([N+](=O)[O-])c3)OC2=O)cc1 [Molecule 97]
true (1)

Same for COc1ccc(CNC(=O)Cn2nc3c(c2NC(=O)Cc2cccs2)CSC3)cc1 [Molecule 55]
false (0)

Same for O=c1[nH]c2ccc([N+](=O)[O-])cc2c(-c2ccccc2)c1Sc1nc2ccccc2o1 [KU0067471]
true (1)

Same for O=c1cc(-c2ccccc2Cl)oc2c(NS(=O)(=O)c3cc(Cl)cc(Cl)c3O)ccc(O)c12 [KU0104277]
true (1)

----------
# assayed-system: UniProtKB Q8ILY1
# assay-name: Fluorescence-based high-throughput DNA polymerase assay (molecular beacon), primary screen and dose-response
# Type: biochemical
# applied-conditions: DRC-1; concentration 10; 180'
The following molecules are listed with their measured % inhibition apPOL 180' values.
The answer is to be given in %; state only the numeric part.

COc1ccc(NC(=O)Cn2nc3c(cc2=O)CCC3)cc1Cl
66

Query: % inhibition apPOL 180'; subject: O=[N+]([O-])c1ccc(SCc2ccco2)c2cccnc12
23.8373

Same for CCCCCc1c2c(cc(O)c1C(=O)O)OC(=O)c1c(cc(OC)cc1C(=O)CCCC)O2
28.4609

Same for O=C1c2ccccc2C(=O)c2c1oc1c3c(ccc21)OCN(C1CCCC1)C3
45.5926

Same for Nc1ncnc(NC2CCCCC2)c1[N+](=O)[O-]
32.1574

Same for O=C(O)c1nc(-c2ccccc2)nc2c1OCO2
10.4504

Same for Cc1ccc(C2=N/C(=C\c3ccc(I)o3)C(=O)O2)cc1[N+](=O)[O-]
14.7198

Same for O=C(Nc1c2c(nn1-c1ccccc1)CSC2)c1ccco1
23.4061

Same for O=C(Cn1ccc2c(=O)[nH]ccc21)Nc1ccccc1Cl [Molecule 19, O=C(Cn1ccc2c1cc[nH]c2=O)Nc1ccccc1Cl]
56.5053

----------
# assayed-system: P. falciparum apicoplast DNA polymerase (Pf-apPOL) (Plasmodium falciparum, UniProt Q8ILY1)
# assay-name: Fluorescence-based high-throughput DNA polymerase assay (molecular beacon), primary screen and dose-response
# Type: biochemical
# applied-conditions: conc. 40; 5'; DRC-2
measured-parameter: % inhibition Apo pol 5' (%)
The answer is to be given in %; state only the numeric part.

// solved cases for % inhibition Apo pol 5' follow
COc1ccc(NC(=O)Cn2ccc3c(=O)[nH]ccc32)cc1Cl [Molecule 10, COc1ccc(cc1Cl)NC(=O)Cn1ccc2c1cc[nH]c2=O]
37
Cc1cc(C)cc(-n2nc3c(c2NC(=O)c2ccco2)CSC3)c1 [KU0055926]
54
O=C(NCC1CCN(C2CCCC2)CC1)C(=O)NC1CCCC1 [KU0199596]
45

// next entry
# query: % inhibition Apo pol 5' | item Cc1cccc(-c2nnc3ccc(NS(=O)(=O)c4ccc(C)c(C)c4)nn23)c1 [Molecule 40] | system: P. falciparum apicoplast DNA polymerase (Pf-apPOL) (Plasmodium falciparum, UniProt Q8ILY1)
22

----------
The following molecules are listed with their measured % inhibition Apol 40' 40 values.
# assayed-system: P. falciparum apicoplast DNA polymerase (Pf-apPOL) (Plasmodium falciparum, UniProt Q8ILY1)
# assay-name: Fluorescence-based high-throughput DNA polymerase assay (molecular beacon), primary screen and dose-response
# Assay type: biochemical
# applied-conditions: DRC-2; read at 40'; concentration 40
The answer is to be given in %; state only the numeric part.

CCCc1ccc(Oc2coc3cc(OC)ccc3c2=O)cc1 [KU0193249]
25
Cc1ccc(N2CCC(NC(=O)Cc3cccs3)C2=O)cc1C (centres unmarked) [Molecule 57, O=C(NC1CCN(C1=O)c1ccc(c(c1)C)C)Cc1cccs1]
39
Cc1cc2[nH]c(C(=O)Nc3ccc(F)cc3)c(CN3CCOCC3)c2s1 [Molecule 60]
57

// next entry
Query: % inhibition Apol 40' 40; subject: COc1ccc(/C=C/c2cc(C(=O)O)c3ccccc3n2)cc1 [Molecule 5, COc1ccc(cc1)/C=C/c1nc2ccccc2c(c1)C(=O)O]
55

----------
The following molecules are listed with their measured % inhibition ApPOL 90' values.
# assayed-system: P. falciparum apicoplast DNA polymerase (Pf-apPOL) (Plasmodium falciparum, UniProt Q8ILY1)
# assay-name: Fluorescence-based high-throughput DNA polymerase assay (molecular beacon), primary screen and dose-response;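 as to % inhibition ApPOL 90': test concentration in µM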
# Type: biochemical
# applied-conditions: DRC-2, 90', concentration 2.5
The answer is to be given in %; state only the numeric part.

// solved cases for % inhibition ApPOL 90' follow
O=C(Nc1nnc(-c2ccno2)o1)c1ccc2c(c1)OCO2
-3.2
O=c1cc(-c2ccccc2)oc2c(O)c(O)ccc12
8
O=C(O)C(=O)Nc1nc(-c2ccc3c(c2)OCCO3)cs1
8

Query: % inhibition ApPOL 90'; subject: O=C(Nc1nnc(-c2ccno2)o1)c1ccc2ncsc2c1
4

Same for CSCCC(C)(O)CNC(=O)C1CC1 (stereo not shown)
3.4

Same for CN(C)C=C1SCc2ccccc2C1=O
0.807

Same for CSC(C)C(=O)C=CN(C)C (stereo not shown)
9

----------
The following molecules are listed with their measured % inhibition Apol 90' values.
# assayed-system: P. falciparum apicoplast DNA polymerase (Pf-apPOL) (Plasmodium falciparum)
# assay-name: Fluorescence-based high-throughput DNA polymerase assay (molecular beacon), primary screen and dose-response
# Type: biochemical
# applied-conditions: DRC-1; 90'; conc 5

// solved cases for % inhibition Apol 90' follow
Cc1ccc(NC(=O)Cn2ccc3c(=O)[nH]ccc32)c(C)c1
2.856%
Cc1cc(C)c2c(c1)C1C=CCC1C(c1ccc(C(=O)O)cc1)N2 (stereo not drawn)
28.3959%
COc1ccccc1C1CC(=O)Oc2cc3c(cc21)OCO3 (stereo not drawn)
13.2862%
COC(=O)c1sc(-c2ccc(C(C)(C)C)cc2)cc1NC(=O)CCC(=O)O
20.5036%
Cc1ccc(N2NC(=O)/C(=C\c3ccc(O)c([N+](=O)[O-])c3)C2=O)cc1Cl
11.4719%
CCOc1nc2cccc(C(=O)OC(C)OC(=O)OC3CCCCC3)c2n1Cc1ccc(-c2ccccc2-c2nnn[nH]2)cc1 (stereo not drawn)
16.7075%

Query: % inhibition Apol 90'; subject: C=CC1=C(C)c2cc3[nH]c(cc4nc(cc5[nH]c(cc1n2)c(C)c5CCC(=O)O)C(CCC(=O)O)=C4C)c(C)c3C=C
79.3077%

Same for Cc1cccc(C2=N/C(=C\c3ccc([N+](=O)[O-])o3)C(=O)O2)c1
19.2427%

Same for O=c1nc(/C=C/c2ccc(Br)cc2)oc2ccccc12
-1.711%

Same for O=C(O)c1ccc(COc2cc([N+](=O)[O-])cc3cccnc23)cc1
14.8475%

Same for N#CC(C#N)=C1SCN(c2cccc(Cl)c2)CS1
27.1845%
